Source: patent US11413328B2

# Assay Name: Pharmacokinetics after subcutaneous or intravenous administration
# Type: in vivo, NMRI female mice
# Condition Parameters: female, NMRI, mouse, in vivo; hBD-2 1 mg/kg subcutaneous or intravenous; read-out: renal clearance
Bridges are numbered along the chain shown (N, C = ends). Where no end group is shown, it is not given here.

[
  {
    "Sequence Chain": "GIGDPVTCLKSGAICHPVFCPRRYKQIGTCGLPGTKCCKKP (disulfide 8-37, 15-30, 20-38 (inferred)) [hBD-2, human beta defensin 2]",
    "CL renal / mL/min": 10
  }
]

* * *

# Assay Name: Pharmacokinetics after subcutaneous or intravenous administration
# Type: in vivo, NMRI female mice
# Condition Parameters: female, NMRI, mouse, blood; hBD-2 1 mg/kg subcutaneous or intravenous
Bridges are numbered along the chain shown (N, C = ends). Where no end group is shown, it is not given here.
Assay Readout: half-life

[
  {
    "Sequence Chain": "GIGDPVTCLKSGAICHPVFCPRRYKQIGTCGLPGTKCCKKP (disulfide 8-37, 15-30, 20-38 (inferred)) [hBD-2, human beta defensin 2]",
    "Assay Value": "60 min"
  }
]
